The reported measurements were obtained from patent US20240043404A1.

system: RS4;11 cells; test: RS4;11 cell viability assay (CellTiter Glo); assay type: cell-based, human; conditions: Homo sapiens, RS4-11, 48 h, 50,000 cells per well, 10% human serum, 48 hours; read-out: RS4; 11 EC50 Values
In this section we review reported EC50 values for a set of compounds.
Provide only the numeric value, understood in nM.

See these solved cases before continuing.
Output measured EC50 for this item: CC1(C)CCC(CN2CCN(c3ccc(C(=O)NS(=O)(=O)c4ccc(N[C@H]5CCN(C6CCOC(C)(C)C6)C5)c([N+](=O)[O-])c4)c(Oc4cnc5[nH]ccc5c4)c3)CC2)=C(c2ccc(Cl)cc2)C1 (stereo partly drawn) [Example 133]
31.9

Output measured EC50 for this item: CC1(C)CCC(CN2CCN(c3ccc(C(=O)NS(=O)(=O)c4ccc(N[C@H]5CCCNC5=O)c([N+](=O)[O-])c4)c(Oc4cnc5[nH]ccc5c4)c3)CC2)=C(c2ccc(Cl)cc2)C1 [Example 160]
83.6

Output measured EC50 for this item: CN1CCC(COc2ccc(S(=O)(=O)NC(=O)c3ccc(N4CCN(CC5=C(c6ccc(Cl)cc6)CC(C)(C)CC5)CC4)cc3Oc3cnc4[nH]ccc4c3)cc2[N+](=O)[O-])CC1 [Example 48]
3.33

Output measured EC50 for this item: CN(C)CC(=O)N1CCO[C@@H](CNc2ccc(S(=O)(=O)NC(=O)c3ccc(N4CCN(CC5=C(c6ccc(Cl)cc6)CC(C)(C)CC5)CC4)cc3Oc3cnc4[nH]ccc4c3)cc2[N+](=O)[O-])C1 [Example 259]
0.388

Output measured EC50 for this item: CC1(C)CCC(CN2CCN(c3ccc(C(=O)NS(=O)(=O)c4ccc(NC5CCN(CC(F)F)CC5)c([N+](=O)[O-])c4)c(Oc4cnc5[nH]ccc5c4)c3)CC2)=C(c2ccc(Cl)cc2)C1 [Example 97]
55.6

Output measured EC50 for this item: CC1(C)CCC(CN2CCN(c3ccc(C(=O)NS(=O)(=O)c4ccc(OCC5CN(C6CC6)CCO5)c([N+](=O)[O-])c4)c(Oc4cnc5[nH]ccc5c4)c3)CC2)=C(c2ccc(Cl)cc2)C1 (stereo not drawn) [Example 354]
53.2

Output measured EC50 for this item: CC1(C)CCC(CN2CCN(c3ccc(C(=O)NS(=O)(=O)c4ccc(NC5CCN(C(C)(C)C)CC5)c([N+](=O)[O-])c4)c(Oc4cnc5[nH]ccc5c4)c3)CC2)=C(c2ccc(Cl)cc2)C1 [Example 227]
7.36

// next item, EC50 requested
Output measured EC50 for this item: CN1CCN(Nc2ccc(S(=O)(=O)NC(=O)c3ccc(N4CCN(CC5=C(c6ccc(Cl)cc6)CC(C)(C)CC5)CC4)cc3Oc3cnc4[nH]ccc4c3)cc2[N+](=O)[O-])CC1 [Example 6]
34.9

* * *

system: RS4;11 cells; test: RS4;11 cell viability assay (CellTiter Glo); assay type: cell-based, human; conditions: Homo sapiens, RS4-11, 48 h, 50,000 cells per well, 10% human serum, 48 hours; read-out: RS4; 11 EC50 Values;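 also: acute lymphoblastic leukemia line RS4,11, EC50 derived from percentage of viable cells after treatment relative to untreated controls, cell killing taken as a measure of Bcl-2 inhibition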
pEC50: −log10 of the molar value.
Kindly return label 1 if reported pEC50 is no lower than 8; return label 0 if it is lower.

Past entries and their recorded results:
// inclusive: pEC50 at least 8? input: CC1(C)CCC(CN2CCN(c3ccc(C(=O)NS(=O)(=O)c4ccc(NC[C@@H]5CCN(C6COC6)C5)c([N+](=O)[O-])c4)c(Oc4cnc5[nH]ccc5c4)c3)CC2)=C(c2ccc(Cl)cc2)C1
label 1

// inclusive: pEC50 at least 8? input: CN1CCC(Nc2ccc(S(=O)(=O)NC(=O)c3ccc(N4CCN(CC5=C(c6ccc(Cl)cc6)CC(C)(C)CC5)CC4)cc3Oc3cnc4[nH]ccc4c3)cc2[N+](=O)[O-])CC1
label 0

// inclusive: pEC50 at least 8? input: CC1(C)CCC(CN2CCN(c3ccc(C(=O)NS(=O)(=O)c4cnc(OC5CCN(C6CCOCC6)CC5)c(C#N)c4)c(Oc4cnc5[nH]ccc5c4)c3)CC2)=C(c2ccc(Cl)cc2)C1
label 0

Further cases:
// inclusive: pEC50 at least 8? input: CN(C)CC(=O)N1CCO[C@H](COc2ncc(S(=O)(=O)NC(=O)c3ccc(N4CCN(CC5=C(c6ccc(Cl)cc6)CC(C)(C)CC5)CC4)cc3Oc3cnc4[nH]ccc4c3)cc2Cl)C1
label 0

// inclusive: pEC50 at least 8? input: CN(C)CC(=O)N1CCO[C@H](CNc2ccc(S(=O)(=O)NC(=O)c3ccc(N4CCN(CC5=C(c6ccc(Cl)cc6)CC(C)(C)CC5)CC4)cc3Oc3cnc4[nH]ccc4c3)cc2[N+](=O)[O-])C1
label 1

// inclusive: pEC50 at least 8? input: O=C(NS(=O)(=O)c1ccc(N[C@H]2CC[C@H](N3CCOCC3)CC2)c([N+](=O)[O-])c1)c1ccc(N2CCN(CC3=C(c4ccc(Cl)cc4)CCC4(CCCC4)C3)CC2)cc1Oc1cnc2[nH]ccc2c1
label 0

// inclusive: pEC50 at least 8? input: CC1(C)C=CC(c2ccc(Cl)cc2)=C(CN2CCN(c3ccc(C(=O)NS(=O)(=O)c4ccc(NCC5CCOCC5)c([N+](=O)[O-])c4)c(Oc4cnc5[nH]ccc5c4)c3)CC2)C1
label 0

// inclusive: pEC50 at least 8? input: O=C(NS(=O)(=O)c1ccc(NCC2CCOCC2)c([N+](=O)[O-])c1)c1ccc(N2CCN(CC3=C(c4ccc(Cl)cc4)CCC(F)(F)C3)CC2)cc1Oc1cnc2[nH]ccc2c1
label 0
